# Test system: Escherichia coli
# assay.info: Antibacterial activity against Escherichia coli ATCC 25922 after 3 to 4 days by serial plate dilution method
# Type: functional
Quick list: MIC per entry.
recorded.endpoint: MIC

> print(dat)
                                    compound   obs.value
 1  CSc1ccc(Cc2nn(CN3CCN(c4ccc(F)cc4)CC3)c(=S)o2)cc1  6.25 µg/mL
 2  CC(C)Cc1ccc(C(C)c2nn(CN3CCN(c4ccc(Cl)cc4)CC3)c(=S)o2)cc1 (configuration not stated)  12.5 µg/mL
 3       CSc1ccc(Cc2nn(CN3CCCCC3)c(=S)o2)cc1  12.5 µg/mL
 4  CC(C)Cc1ccc(C(C)c2nn(CN3CCN(c4cccc(Cl)c4)CC3)c(=S)o2)cc1 (configuration not stated)    25 µg/mL
 5  COc1ccc(N2CCN(Cn3nc(Cc4ccc(SC)cc4)oc3=S)CC2)cc1  12.5 µg/mL
 6  CCOc1ccccc1N1CCN(Cn2nc(Cc3ccc(SC)cc3)oc2=S)CC1  12.5 µg/mL
 7  CSc1ccc(Cc2nn(CN3CCN(c4ccc([N+](=O)[O-])cc4)CC3)c(=S)o2)cc1  6.25 µg/mL
 8  CSc1ccc(Cc2nn(CN3CCN(c4cccc(Cl)c4)CC3)c(=S)o2)cc1  12.5 µg/mL
 9       CSc1ccc(Cc2nn(CN3CCOCC3)c(=S)o2)cc1  12.5 µg/mL
10  COc1ccc(N2CCN(Cn3nc(C(C)c4ccc(CC(C)C)cc4)oc3=S)CC2)cc1 (configuration not stated)  6.25 µg/mL
11       CSc1ccc(Cc2nn(CN3CCNCC3)c(=S)o2)cc1  12.5 µg/mL
12  CC(C)Cc1ccc(C(C)c2nn(CN3CCNCC3)c(=S)o2)cc1 (configuration not stated)  12.5 µg/mL
13    CSc1ccc(Cc2nn(CN3CCN(C)CC3)c(=S)o2)cc1  12.5 µg/mL
14  CSc1ccc(Cc2nn(CN3CCN(c4ccc(Cl)cc4)CC3)c(=S)o2)cc1  6.25 µg/mL
15  CCOC(=O)C1CCN(Cn2nc(C(C)c3ccc(CC(C)C)cc3)oc2=S)CC1 (configuration not stated)  12.5 µg/mL
16  CCOC(=O)C1CCN(Cn2nc(Cc3ccc(SC)cc3)oc2=S)CC1  12.5 µg/mL
17  CC(C)Cc1ccc(C(C)c2nn(CN3CCCCC3)c(=S)o2)cc1 (configuration not stated)    25 µg/mL
18  CCOc1ccccc1N1CCN(Cn2nc(C(C)c3ccc(CC(C)C)cc3)oc2=S)CC1 (configuration not stated)    25 µg/mL
19  CC(C)Cc1ccc(C(C)c2nn(CN3CCN(c4ccc([N+](=O)[O-])cc4)CC3)c(=S)o2)cc1 (configuration not stated)  12.5 µg/mL
20  CC(C)Cc1ccc(C(C)c2nn(CN3CCOCC3)c(=S)o2)cc1 (configuration not stated)  6.25 µg/mL
21  CC(C)Cc1ccc(C(C)c2nn(CN3CCN(c4ccc(F)cc4)CC3)c(=S)o2)cc1 (configuration not stated)  6.25 µg/mL
22  CC(C)Cc1ccc(C(C)c2nn(CN3CCN(C)CC3)c(=S)o2)cc1 (configuration not stated)  12.5 µg/mL

###

# System: Staphylococcus aureus
# assay.info: Antibacterial activity against Staphylococcus aureus ATCC 25923 after 3 to 4 days by serial plate dilution method
# Format: functional
Entries annotated with measured MIC
recorded.endpoint: MIC

> print(dat)
                                    compound  obs.value
 1  CSc1ccc(Cc2nn(CN3CCN(c4ccc([N+](=O)[O-])cc4)CC3)c(=S)o2)cc1  6.25 mg/L
 2  COc1ccc(N2CCN(Cn3nc(C(C)c4ccc(CC(C)C)cc4)oc3=S)CC2)cc1 (stereo not drawn)  6.25 mg/L
 3       CSc1ccc(Cc2nn(CN3CCNCC3)c(=S)o2)cc1  12.5 mg/L
 4  CC(C)Cc1ccc(C(C)c2nn(CN3CCNCC3)c(=S)o2)cc1 (stereo not drawn)  12.5 mg/L
 5  CCOc1ccccc1N1CCN(Cn2nc(Cc3ccc(SC)cc3)oc2=S)CC1  12.5 mg/L
 6  CC(C)Cc1ccc(C(C)c2nn(CN3CCN(C)CC3)c(=S)o2)cc1 (stereo not drawn)  12.5 mg/L
 7  CSc1ccc(Cc2nn(CN3CCN(c4ccc(Cl)cc4)CC3)c(=S)o2)cc1  6.25 mg/L
 8       CSc1ccc(Cc2nn(CN3CCOCC3)c(=S)o2)cc1  12.5 mg/L
 9  CCOc1ccccc1N1CCN(Cn2nc(C(C)c3ccc(CC(C)C)cc3)oc2=S)CC1 (stereo not drawn)    25 mg/L
10  CC(C)Cc1ccc(C(C)c2nn(CN3CCN(c4cccc(Cl)c4)CC3)c(=S)o2)cc1 (stereo not drawn)    25 mg/L
11    CSc1ccc(Cc2nn(CN3CCN(C)CC3)c(=S)o2)cc1  12.5 mg/L
12       CSc1ccc(Cc2nn(CN3CCCCC3)c(=S)o2)cc1  12.5 mg/L
13  COc1ccc(N2CCN(Cn3nc(Cc4ccc(SC)cc4)oc3=S)CC2)cc1  12.5 mg/L

###

# Tested on: Pseudomonas aeruginosa
# assay.info: Antibacterial activity against Pseudomonas aeruginosa ATCC 27853 after 3 to 4 days by serial plate dilution method
# Format: functional
// values below are reported MIC
recorded.endpoint: MIC

> print(dat)
                                    compound  recorded.endpoint   obs.value
 1  CC(C)Cc1ccc(C(C)c2nn(CN3CCN(c4ccc([N+](=O)[O-])cc4)CC3)c(=S)o2)cc1 (configuration not stated)                MIC  12.5 µg/mL
 2  CCOC(=O)C1CCN(Cn2nc(C(C)c3ccc(CC(C)C)cc3)oc2=S)CC1 (configuration not stated)                MIC  12.5 µg/mL
 3  CC(C)Cc1ccc(C(C)c2nn(CN3CCNCC3)c(=S)o2)cc1 (configuration not stated)                MIC  12.5 µg/mL
 4  CCOc1ccccc1N1CCN(Cn2nc(Cc3ccc(SC)cc3)oc2=S)CC1                MIC  12.5 µg/mL
 5  COc1ccc(N2CCN(Cn3nc(Cc4ccc(SC)cc4)oc3=S)CC2)cc1                MIC  12.5 µg/mL
 6  CSc1ccc(Cc2nn(CN3CCN(c4cccc(Cl)c4)CC3)c(=S)o2)cc1                MIC  12.5 µg/mL
 7  CC(C)Cc1ccc(C(C)c2nn(CN3CCN(c4ccc(Cl)cc4)CC3)c(=S)o2)cc1 (configuration not stated)                MIC  12.5 µg/mL
 8  CC(C)Cc1ccc(C(C)c2nn(CN3CCN(c4ccc(F)cc4)CC3)c(=S)o2)cc1 (configuration not stated)                MIC  6.25 µg/mL
 9    CSc1ccc(Cc2nn(CN3CCN(C)CC3)c(=S)o2)cc1                MIC  12.5 µg/mL
10  CCOC(=O)C1CCN(Cn2nc(Cc3ccc(SC)cc3)oc2=S)CC1                MIC  12.5 µg/mL
11  CC(C)Cc1ccc(C(C)c2nn(CN3CCN(C)CC3)c(=S)o2)cc1 (configuration not stated)                MIC  12.5 µg/mL
12  CCOc1ccccc1N1CCN(Cn2nc(C(C)c3ccc(CC(C)C)cc3)oc2=S)CC1 (configuration not stated)                MIC    25 µg/mL
13  CSc1ccc(Cc2nn(CN3CCN(c4ccc(Cl)cc4)CC3)c(=S)o2)cc1                MIC  6.25 µg/mL
14  CSc1ccc(Cc2nn(CN3CCN(c4ccc(F)cc4)CC3)c(=S)o2)cc1                MIC  6.25 µg/mL
15       CSc1ccc(Cc2nn(CN3CCCCC3)c(=S)o2)cc1                MIC  12.5 µg/mL
16  CC(C)Cc1ccc(C(C)c2nn(CN3CCN(c4cccc(Cl)c4)CC3)c(=S)o2)cc1 (configuration not stated)                MIC    25 µg/mL
17  CC(C)Cc1ccc(C(C)c2nn(CN3CCCCC3)c(=S)o2)cc1 (configuration not stated)                MIC    25 µg/mL
18  COc1ccc(N2CCN(Cn3nc(C(C)c4ccc(CC(C)C)cc4)oc3=S)CC2)cc1 (configuration not stated)                MIC  6.25 µg/mL
19  CSc1ccc(Cc2nn(CN3CCN(c4ccc([N+](=O)[O-])cc4)CC3)c(=S)o2)cc1                MIC  6.25 µg/mL
20       CSc1ccc(Cc2nn(CN3CCOCC3)c(=S)o2)cc1                MIC  12.5 µg/mL
21  CC(C)Cc1ccc(C(C)c2nn(CN3CCOCC3)c(=S)o2)cc1 (configuration not stated)                MIC  6.25 µg/mL
22       CSc1ccc(Cc2nn(CN3CCNCC3)c(=S)o2)cc1                MIC  12.5 µg/mL
